System: Hog Brain Phosphodiesterase (PDE)
measurementProtocol: Inhibition of c-AMP hydrolysis by hog brain phosphodiesterase (PDE)
Format: biochemical
details: c-AMP 1.0, derivative 0.5 millimole/liter
valueType: Inhibition I: Relative Inhibition (%)

Query: Note Inhibition I: Relative Inhibition for the compound shown: "CCCCCCCCNc1nc2c(N)ncnc2n1[C@@H]1O[C@@H]2COP(=O)(O)O[C@H]2[C@H]1O"
Result: 80.0

Query: Supply measured Inhibition I: Relative Inhibition of "CCCCCCCCCCSc1nc2c(N)ncnc2n1[C@@H]1O[C@@H]2COP(=O)(O)O[C@H]2[C@H]1O" in your reply.
Result: 68.2

Query: Determine its reported Inhibition I: Relative Inhibition: "CCCCCCCCCSc1nc2c(N)ncnc2n1[C@@H]1O[C@@H]2COP(=O)(O)O[C@H]2[C@H]1O"
Result: 74.9

Query: Report measured Inhibition I: Relative Inhibition; entry is "CCCCCCCCCCNc1nc2c(N)ncnc2n1[C@@H]1O[C@@H]2COP(=O)(O)O[C@H]2[C@H]1O"
Result: 67.6
